Data provenance: the supplement of paper PMC10567573

B1: CCND1 (parent)
chain: PEAEENKQIIRKHAQTFVALCATD

Variants of: B1
measurement_description: protein stability index of a GFP-peptide fusion (GPS, HEK-293T) (PSI 1-6); higher = more stable;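 also: lentivirally expressed fusions sorted by FACS into six bins by GFP to DsRed ratio, PSI derived from sequencing read proportions per bin multiplied by bin number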
assay_conditions: c terminus: a fixed tail appended
Label met when protein stability index is at or above 3; otherwise label not met.

* P1L | not met
* H13K | not met
* T23V | not met
* A19I | not met
* K12D | met
* E5H | not met
* L20Y | not met
* F17Q | met
* L20I | met
* E2H | not met
* P1C | not met
* Q15A | met
* A14R | not met
* D24Y | not met
* T23F | not met
* C21R | met
* K7T | not met
* I10Y | not met
* E2L | not met
* E4C | met
